- MEASURED ON: Cyclin-dependent kinase 5/CDK5 activator 1 (Homo sapiens)
- Sequence (Q00535 whole entry): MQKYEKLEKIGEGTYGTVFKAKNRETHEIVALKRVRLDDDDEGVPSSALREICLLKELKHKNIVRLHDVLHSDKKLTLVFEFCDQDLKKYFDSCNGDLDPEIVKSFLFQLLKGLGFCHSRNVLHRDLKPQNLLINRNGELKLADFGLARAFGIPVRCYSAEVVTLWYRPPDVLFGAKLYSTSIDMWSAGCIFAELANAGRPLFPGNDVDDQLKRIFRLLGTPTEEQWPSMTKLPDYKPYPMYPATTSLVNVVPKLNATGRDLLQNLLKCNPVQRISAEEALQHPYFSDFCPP
- Sequence (Q15078 whole entry, further chain): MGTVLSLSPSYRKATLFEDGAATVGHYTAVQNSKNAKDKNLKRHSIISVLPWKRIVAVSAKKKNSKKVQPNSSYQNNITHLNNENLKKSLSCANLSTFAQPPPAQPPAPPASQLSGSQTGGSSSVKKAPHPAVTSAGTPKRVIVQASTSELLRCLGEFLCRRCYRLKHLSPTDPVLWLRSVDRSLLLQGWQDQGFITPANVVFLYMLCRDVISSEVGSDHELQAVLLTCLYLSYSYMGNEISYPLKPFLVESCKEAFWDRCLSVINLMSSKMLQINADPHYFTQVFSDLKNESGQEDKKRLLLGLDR
- PROTOCOL TEXT: Inhibition of Cyclin-dependent kinase 5-p35nck5a
pIC50: −log10 of the molar value.
MEASURED QUANTITY: pIC50

# get_value(readout='pIC50', item= O=[N+]([O-])c1ccc(Cl)c(-c2[nH]ccc3c4ccccc4nc2-3)c1 )
< 2.92

====

- MEASURED ON: Cyclin-dependent kinase 2 (Homo sapiens)
- PROTOCOL TEXT: Percentage inhibition against cyclin dependent kinase 2 (CDK 2) at a concentration of 50 uM
Assign inhibition to each entry below.
Write the answer as a number in %, unit excluded.

Any idea what its inhibition is? The compound is N#Cc1ccccc1-c1[nH]ccc2c3ccccc3nc1-2
8

Query (compound): Cc1nccc2c1[nH]c1ccccc12 ; field requested: inhibition
47

# get_value(readout='inhibition', item= CC(C)c1nccc2c1[nH]c1ccccc12 )
44

Look up inhibition for this compound: CC(C)(C)c1[nH]ccc2c3ccccc3nc1-2
50

Any idea what inhibition was measured for Cc1nccc2c1[nH]c1cccc(C)c12 ?
30

Would you kindly share the measured inhibition for Fc1ccc2c(c1)[nH]c1c(-c3ccccc3)nccc12 ?
57

Query: inhibition; subject: Cc1nccc2c1[nH]c1cc(OCCN3C(=O)c4ccccc4C3=O)ccc12
8

====

What pIC50 was measured for each of the following?
- PROTOCOL TEXT: Inhibition of Mitogen-activated protein kinase
pIC50: −log10 of the molar value.

Which pIC50 is reported for this compound? Cc1[nH]cnc1-c1nccc2c1[nH]c1ccccc12
< 3.60

I have this compound here, COc1ccc2c(c1)[nH]c1c(C)nccc12 [HARMINE] , and I need its recorded pIC50.
< 3.60

Name the reported pIC50 value associated with the compound Cc1nccc2c1[nH]c1cc(F)ccc12
< 3.60

====

Give measured inhibition for each item. Keep answers brief.
- MEASURED ON: Cyclin-dependent kinase 2 (Homo sapiens)
- PROTOCOL TEXT: Percentage inhibition against cyclin dependent kinase 2 (CDK 2) at a concentration of 50 uM
Field format: number, assumed %, no unit text.

Any idea what its inhibition is? The compound is COc1ccc2c(c1)[nH]c1c(C)nccc12
62

Can you share its inhibition? I mean this compound: FC(F)(F)c1[nH]ccc2c3ccccc3nc1-2
39

Need inhibition, item Cc1nccc2c1[nH]c1cc(OCCO)ccc12
4

For the compound shown here, Clc1cccc(-c2nccc3c2[nH]c2ccccc23)c1 , give the reported inhibition.
32

Look at this compound and give its reported inhibition. CCc1nccc2c1[nH]c1cc(F)ccc12
54

Please report the recorded inhibition for CCCc1ncc(N)c2c1[nH]c1ccccc12 .
22

// inhibition lookup, key: Cc1[nH]ccc2c1[nH]c1cc(=O)ccc12
69

Return reported inhibition; argument: Cc1nccc2c1[nH]c1cc(OCCOC(=O)c3ccccc3)ccc12
13

Fill blank: measured inhibition of the compound Brc1ccccc1-c1[nH]ccc2c3ccccc3nc1-2 is ____.
10

If you can, please state the reported inhibition value of O=[N+]([O-])c1ccccc1-c1[nH]ccc2c3ccccc3nc1-2 .
43

// inhibition lookup, key: Cc1nccc2c1[nH]c1ccc(OC(=O)c3ccccc3)cc12
2

Item Cc1ccc2c(c1)[nH]c1c(C)nccc12 has what recorded inhibition?
23

====

Provide the reported IC50 of each item.
- MEASURED ON: Tyrosine-protein kinase Lyn (Homo sapiens, UniProt P07948)
- Sequence (P07948 whole entry): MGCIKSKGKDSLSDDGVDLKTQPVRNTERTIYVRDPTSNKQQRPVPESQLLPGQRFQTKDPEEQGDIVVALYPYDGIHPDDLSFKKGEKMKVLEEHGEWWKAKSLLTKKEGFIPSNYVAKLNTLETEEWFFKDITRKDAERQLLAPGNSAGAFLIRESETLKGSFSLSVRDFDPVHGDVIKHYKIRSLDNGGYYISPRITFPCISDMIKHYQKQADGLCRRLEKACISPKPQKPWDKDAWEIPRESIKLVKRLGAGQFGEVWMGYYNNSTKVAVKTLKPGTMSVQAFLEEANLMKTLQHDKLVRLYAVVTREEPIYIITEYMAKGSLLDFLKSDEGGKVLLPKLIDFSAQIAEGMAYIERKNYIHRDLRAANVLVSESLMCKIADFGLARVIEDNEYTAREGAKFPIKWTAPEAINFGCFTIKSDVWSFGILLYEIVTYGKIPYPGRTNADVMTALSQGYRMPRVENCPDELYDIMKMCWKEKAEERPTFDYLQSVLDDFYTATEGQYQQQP

Missing value: IC50, Tyrosine-protein kinase Lyn (Homo sapiens, UniProt P07948), entry COc1ccc2c(c1)[nH]c1c(C)nccc12 [HARMINE] . Fill in?
> 250 µM

So what IC50 did Cc1nccc2c1[nH]c1cc(F)ccc12 get with Tyrosine-protein kinase Lyn (Homo sapiens, UniProt P07948)?
> 250 µM

====

- MEASURED ON: UniProt:P24941
- PROTOCOL TEXT: Percentage inhibition against cyclin dependent kinase 2 (CDK 2) at a concentration of 50 uM
The threshold is inclusive: inhibition of exactly 20% counts as Met; values below receive Not met.

Evaluate Fc1ccccc1-c1[nH]ccc2c3ccccc3nc1-2 : inhibition at minimum 20%?
Met

Tell me whether inhibition is at least 20% here: CCOc1ccc2c(c1)[nH]c1c(C)nccc12
Met

Decide: inhibition of COc1cccc(-c2[nH]ccc3c4ccccc4nc2-3)c1 >= 20%?
Not met

inhibition >= 20% for CCCNC(=O)Oc1ccc2c(c1)[nH]c1c(C)nccc12 ?
Met

Threshold query (inhibition >= 20%) on COc1ccc2[nH]c3c(C(=O)O)nccc3c2c1
Not met

Answer whether inhibition of O=[N+]([O-])c1ccc(Cl)c(-c2[nH]ccc3c4ccccc4nc2-3)c1 is greater than or equal to 20%.
Met

Check if inhibition >= 20% (inclusive). Item: Cc1nccc2c1[nH]c1cc(Oc3ncc(C(F)(F)F)cc3Cl)ccc12
Not met

Decide: inhibition of Fc1cccc(-c2nccc3c2[nH]c2ccccc23)c1 >= 20%?
Not met

Record c1ccc2c(c1)[nH]c1cnccc12 ; criterion: inhibition no lower than 20%. Met?
Met

Does Cc1nccc2c1[nH]c1cccc(F)c12 have a reported inhibition of at least 20%?
Met

Identify whether the reported inhibition of the following compound is 20% or greater: N#Cc1ccc(-c2nccc3c2[nH]c2ccccc23)cc1
Met

====

- MEASURED ON: Cyclin-dependent kinase 2/cyclin A (Homo sapiens, UniProt P24941)
- PROTOCOL TEXT: Inhibition of Cyclin-dependent kinase 2-cyclin A
MEASURED QUANTITY: IC50 (µM)
Give just the number in µM; leave the unit off.

Recorded IC50 for Cc1nccc2c1[nH]c1cc(F)ccc12 , please?
30

Look up IC50: Cc1[nH]cnc1-c1nccc2c1[nH]c1ccccc12
6

Fill blank: measured IC50 of the compound O=[N+]([O-])c1ccc(Cl)c(-c2[nH]ccc3c4ccccc4nc2-3)c1 is ____.
22

GET /values?readout=IC50&item= COc1ccc2c(c1)[nH]c1c(C)nccc12 [HARMINE]
35

====

- MEASURED ON: Cyclin-dependent kinase 2 (Homo sapiens)
- PROTOCOL TEXT: Percentage inhibition against cyclin dependent kinase 2 (CDK 2) at a concentration of 50 uM
MEASURED QUANTITY: inhibition (%)
Please respond with the number in % and leave the unit unwritten.

Record lookup: for Cyclin-dependent kinase 2 (Homo sapiens), what inhibition belongs to Cc1nccc2c1[nH]c1cc(OCCC3(C)OCC(C)(C)CO3)ccc12 ?
27

Please state recorded inhibition (tested on Cyclin-dependent kinase 2 (Homo sapiens)) of CCCc1nccc2c1[nH]c1ccccc12
43

Query inhibition on Cyclin-dependent kinase 2 (Homo sapiens) for Cc1nccc2c1[nH]c1ccc(F)cc12
46

Record lookup: for Cyclin-dependent kinase 2 (Homo sapiens), what inhibition belongs to c1ccc(-c2nccc3c2[nH]c2ccccc23)cc1 ?
13

Checklist item: inhibition tested on Cyclin-dependent kinase 2 (Homo sapiens), entry CCCc1nccc2c1[nH]c1cc(F)ccc12 , value?
60

Provide value of inhibition for this record tested with Cyclin-dependent kinase 2 (Homo sapiens): COC(=O)Cc1nccc2c1[nH]c1ccccc12
11

Give the reported inhibition for Cc1nccc2c1[nH]c1cc(F)ccc12 (system: Cyclin-dependent kinase 2 (Homo sapiens)).
65

Field: inhibition (Cyclin-dependent kinase 2 (Homo sapiens)). Entry: Cc1[nH]cnc1-c1nccc2c1[nH]c1ccccc12
89

Provide the documented inhibition with Cyclin-dependent kinase 2 (Homo sapiens) as the system for c1ccc2c(c1)[nH]c1c(-c3c[nH]cn3)nccc12
30

Which inhibition is reported with Cyclin-dependent kinase 2 (Homo sapiens) for this entry: Clc1ccc(-c2nccc3c2[nH]c2ccccc23)cc1 ?
48

I'm curious: which inhibition was measured for Cc1nccc2c1[nH]c1cc(OCC(N)=O)ccc12 tested on Cyclin-dependent kinase 2 (Homo sapiens)?
15

Record lookup: for Cyclin-dependent kinase 2 (Homo sapiens), what inhibition belongs to CC1=NCCc2c1[nH]c1cc(O)ccc21 ?
13

What is its inhibition for Cyclin-dependent kinase 2 (Homo sapiens)? Entry: Fc1ccc2c(c1)[nH]c1c(-c3ccccc3F)nccc12
55

Could you share what inhibition was measured for Cc1[nH]cnc1-c1[nH]ccc2c3ccc(F)cc3nc1-2 , tested on Cyclin-dependent kinase 2 (Homo sapiens)?
51

Provide the documented inhibition with Cyclin-dependent kinase 2 (Homo sapiens) as the system for N#Cc1cccc(-c2nccc3c2[nH]c2ccccc23)c1
31

Return inhibition measured with Cyclin-dependent kinase 2 (Homo sapiens) given this compound: Cc1nccc2c1[nH]c1cc(OC(=O)NC3CCCCC3)ccc12
53

# query: inhibition | item Cc1ccc2c(c1)[nH]c1c(-c3ccccc3F)nccc12 | system: Cyclin-dependent kinase 2 (Homo sapiens)
36

Hello, I am looking for reported inhibition with Cyclin-dependent kinase 2 (Homo sapiens) for COc1ccc2c3c([nH]c2c1)C(C)=NCC3 . Could you help?
10

# query: inhibition | item COc1ccc(-c2nccc3c2[nH]c2ccccc23)cc1 | system: Cyclin-dependent kinase 2 (Homo sapiens)
6

Enter reported inhibition observed with Cyclin-dependent kinase 2 (Homo sapiens) for O=[N+]([O-])c1ccc(-c2[nH]ccc3c4ccccc4nc2-3)cc1
31

Request: inhibition, test system Cyclin-dependent kinase 2 (Homo sapiens), entry Cc1nccc2c1[nH]c1cc(OCC(=O)OCc3ccccc3)ccc12
57

Lab note: need inhibition for O=[N+]([O-])c1ccc(-c2[nH]ccc3c4ccccc4nc2-3)cc1Cl on Cyclin-dependent kinase 2 (Homo sapiens), anyone have it?
4

Give the reported inhibition for Fc1ccc(-c2[nH]ccc3c4ccccc4nc2-3)c(F)c1 (system: Cyclin-dependent kinase 2 (Homo sapiens)).
56

Requested read-out inhibition, target or system Cyclin-dependent kinase 2 (Homo sapiens), entry O=[N+]([O-])c1cccc(-c2[nH]ccc3c4ccccc4nc2-3)c1
19

Request - read-out inhibition | tested on Cyclin-dependent kinase 2 (Homo sapiens) | compound CCCCOc1ccc2c(c1)[nH]c1c(C)nccc12
50
